Tested on: S. aureus 013S
Format: cell-based, Staphylococcus aureus
Test settings: clinical strain, broth microdilution, 0.5 × 10^5 CFU/mL, 18 h, 37 °C, at least triplicate
Procedure: Microbiological assays were performed using reference and clinical strains of Staphylococcus aureus. Minimal inhibitory concentrations (MIC) were determined by broth microdilution method on 96-well polystyrene plates according to Clinical and Laboratory Standards Institute (CLSI) recommendations [Clinical and Laboratory Standards Institute (CLSI) [2012]]. […]
Where no end group is shown, it is not given here.
Each record here notes measured MIC.
Your answer is read as µg/mL, so omit the unit and give the number.

Data request: Returns the measured MIC for the input substance. Input: GLFDVIKKVASVIGGL-NH2 [Citropin 1.1 AcO^−]
Data returned: 2

Data request: Try the substance FLPLIGRVLSGIL-NH2 [Temporin A Cl^−]
Data returned: 4

Data request: Try the substance GLFDVIKKVASVIGGL-NH2 [Citropin 1.1 TFA^−]
Data returned: 2

Data request: Try the substance GLFDVIKKVASVIGGL-NH2 [Citropin 1.1 Cl^−]
Data returned: 2
